Tested system: RPS6KB1 (p70S6K) (Homo sapiens)
Sequence (P23443 whole entry): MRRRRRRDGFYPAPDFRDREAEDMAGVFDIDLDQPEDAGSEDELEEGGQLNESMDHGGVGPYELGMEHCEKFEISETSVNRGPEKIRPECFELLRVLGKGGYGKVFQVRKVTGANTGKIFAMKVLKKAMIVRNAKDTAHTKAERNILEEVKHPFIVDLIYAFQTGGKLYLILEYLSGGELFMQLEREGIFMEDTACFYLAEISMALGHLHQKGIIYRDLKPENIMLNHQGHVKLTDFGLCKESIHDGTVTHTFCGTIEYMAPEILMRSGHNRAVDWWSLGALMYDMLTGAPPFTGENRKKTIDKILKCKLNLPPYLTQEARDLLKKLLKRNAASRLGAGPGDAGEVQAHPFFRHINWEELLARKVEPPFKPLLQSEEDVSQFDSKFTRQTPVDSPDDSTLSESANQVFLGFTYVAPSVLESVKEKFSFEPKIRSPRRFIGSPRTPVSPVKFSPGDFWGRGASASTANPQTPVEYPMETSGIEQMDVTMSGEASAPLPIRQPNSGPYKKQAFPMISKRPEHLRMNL
Assay text: Z'-LYTE SelectScreen biochemical kinase assay RPS6KB1 (p70S6K)
Reported conditions: read-out: % Inhibition mean RPS6KB1 (p70S6K)
Label Met for high-side inhibition at 10 µM (at or above 3%) and Not met for low-side inhibition at 10 µM (below it).

Study these solved cases before continuing.
Molecule	Category
CCn1ncc2c1CCC(Nc1nc3c(-c4ccccc4C)cccn3n1)C2 (stereo not drawn) [Example 56]	Not met
CCn1ncc2c1CC[C@@H](Nc1nc3c(-c4ccc(F)cc4C)cccn3n1)C2 [Example R-42]	Met
CCn1ncc2c1CCC(Nc1nc3c(-c4ccc(OC)nc4)cccn3n1)C2 (stereo not drawn) [Example 71]	Met
CCn1nnc2c1CCC(Nc1nc3c(-c4ccc(F)cc4C)cccn3n1)C2 (stereo not drawn) [Example 51]	Not met
Cc1cc(F)ccc1-c1cccn2nc(NC3CCc4c(cnn4C)C3)nc12 (stereo not drawn) [Example 10]	Not met

State whether the measured inhibition at 10 µM reaches 3%, counting equality as reaching it, for Cc1cc(F)ccc1-c1cccn2nc(NC3CCc4c(cnn4CC(C)C)C3)nc12 (stereo not drawn) [Example 45]
Met

Identify whether the reported inhibition at 10 µM of the following molecule is 3% or greater: CCn1ncc2c1CCC(Nc1nc3c(-c4ccc(C)nc4)cccn3n1)C2 (stereo not drawn) [Example 67]
Met

Check if inhibition at 10 µM >= 3% (inclusive). Item: CCn1ncc2c1CCC(Nc1nc3c(-c4ccc(F)cc4)cccn3n1)C2 (stereo not drawn) [Example 55]
Met

###

Tested system: CSF1R (FMS) (Homo sapiens)
Sequence (P07333 20-972): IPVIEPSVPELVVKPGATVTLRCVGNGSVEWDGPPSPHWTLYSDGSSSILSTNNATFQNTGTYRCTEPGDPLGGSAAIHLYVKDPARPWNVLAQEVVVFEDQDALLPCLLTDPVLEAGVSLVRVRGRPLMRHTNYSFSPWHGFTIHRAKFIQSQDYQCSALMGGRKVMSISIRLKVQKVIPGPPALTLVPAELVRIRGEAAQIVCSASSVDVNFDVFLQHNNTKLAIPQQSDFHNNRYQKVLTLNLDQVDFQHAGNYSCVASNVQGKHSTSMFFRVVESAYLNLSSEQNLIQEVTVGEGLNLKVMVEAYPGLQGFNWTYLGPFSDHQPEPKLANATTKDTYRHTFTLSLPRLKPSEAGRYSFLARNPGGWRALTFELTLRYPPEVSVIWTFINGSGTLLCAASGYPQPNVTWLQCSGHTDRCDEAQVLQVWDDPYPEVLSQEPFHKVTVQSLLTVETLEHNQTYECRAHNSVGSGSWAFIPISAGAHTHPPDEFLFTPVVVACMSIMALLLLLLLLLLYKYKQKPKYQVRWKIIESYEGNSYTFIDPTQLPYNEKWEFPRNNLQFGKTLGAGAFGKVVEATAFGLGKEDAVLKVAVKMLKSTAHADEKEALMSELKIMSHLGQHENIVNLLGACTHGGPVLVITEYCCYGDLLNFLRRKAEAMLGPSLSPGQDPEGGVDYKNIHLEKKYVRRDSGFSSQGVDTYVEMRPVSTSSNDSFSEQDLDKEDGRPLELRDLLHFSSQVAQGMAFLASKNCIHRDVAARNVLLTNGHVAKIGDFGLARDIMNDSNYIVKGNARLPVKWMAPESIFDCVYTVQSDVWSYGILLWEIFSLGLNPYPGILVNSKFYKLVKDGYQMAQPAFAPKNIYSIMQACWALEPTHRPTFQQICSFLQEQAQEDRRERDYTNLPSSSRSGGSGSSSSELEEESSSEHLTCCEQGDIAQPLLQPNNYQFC
Assay text: Z'-LYTE SelectScreen biochemical kinase assay CSF1R (FMS)
Reported conditions: 10 μmolar compound concentration; ATP at Km app; read-out: CSF1R (FMS) inhibition
Readout name: inhibition at 10 µM

The examples below pair each entry with its known result.
Molecule	Result
CCn1nc(Cl)c2c1CCC(Nc1nc3c(-c4ccc(F)cc4C)cccn3n1)C2 (centres unmarked) [Example 48]	< 40%
CC1(C)C(=O)Nc2ccc(Nc3nc4c(-c5cccc(F)c5)cccn4n3)cc21 [Cpd. 263 in WO09155551, reference compound]	> 80%
CCn1ncc2c1CCC(Nc1nc3c(-c4cnccc4OC)cccn3n1)C2 (centres unmarked) [Example 68]	40 to 80%

Query the reported inhibition at 10 µM for CSF1R (FMS) (Homo sapiens); item: CCn1ncc2c1CCC(Nc1nc3c(-c4ccccc4)cccn3n1)C2 (centres unmarked) [Example 57]
40 to 80%

Enter reported inhibition at 10 µM observed with CSF1R (FMS) (Homo sapiens) for CCn1nnc2c1CCC(Nc1nc3c(-c4ccc(F)cc4C)cccn3n1)C2 (centres unmarked) [Example 51]
< 40%

Checklist item: inhibition at 10 µM tested on CSF1R (FMS) (Homo sapiens), entry CCCCCn1ncc2c1CCC(Nc1nc3c(-c4ccc(F)cc4C)cccn3n1)C2 (centres unmarked) [Example 47] , value?
< 40%

Give the reported inhibition at 10 µM for CCn1ncc2c1CCC(Nc1nc3c(-c4cccnc4OC)cccn3n1)C2 (centres unmarked) [Example 69] (system: CSF1R (FMS) (Homo sapiens)).
< 40%

Item: CCn1ncc2c1CCC(Nc1nc3c(-c4cncc(OC)c4)cccn3n1)C2 (centres unmarked) [Example 70] Test system: CSF1R (FMS) (Homo sapiens) Read-out: inhibition at 10 µM Value: ?
> 80%
